Substrate: BHET
measurement-protocol: Proxy for plastic degradation [Released monomer concentration (HPLC/LC-MS) (MHET+TPA)]
assay-context: pH 7.5
measured-metric: Proxy for plastic degradation (µM)

[
  {
    "protein": "unnamed (protein) NPYARGPNPTAASLEASAGPFTVRSFTVSRPSGYGAGTVYYPTNAGGTVGAIAIVPGATARQSSIKWWGPRLASHGFVVITIDTNSTLDQPSSRSSQQMAALRQVASLNGTSSSPIYGKVDTARMGVMGWSMGGGGSLISAANNPSLKAAAPQAPWDSSTNFSSVTVPTLIFACENDSIAPVNSSALPIYDSMSRNAKQFLEINGGSHSCANSGNSNQALIGKKGVAWMKRFMDNDTRYSTFACENPNSTRVSDFRTANCS",
    "measured-metric": "Proxy for plastic degradation",
    "observed-measurement": 1.09
  },
  {
    "protein": "unnamed (protein) NPYARGPNPTAASLEASAGPFTVRSFTVSRPSGYGAGTVYYPTNAGGTVGAIAIVPGYTARQSSIKWWGPRLASHGFVVITIDTNSTLDQPSSRSSQQMAALRQVASLNGTSSSPIYGKVDTARMGVMGWSMGGGGSLISAANNPSLKAAAPQAPWDSSTNFSSVTVPTLIFACENDSIAPVNSHALPIYDSMSRNAKQFLEINGGSHSCANSGNSNQALIGKKGVAWMKRFMDNDTRYSTFACENPNSTRVSDFRTANCS",
    "measured-metric": "Proxy for plastic degradation",
    "observed-measurement": 0.45
  },
  {
    "protein": "unnamed (protein) NPYARGPNPTAASLEASAGPFTVRSFTVSRPSGYGAGTVYYPTNAGGTVGAIAIVPGYTARQSSIKWWGPRLASHGFVVITIDTNSTLDQPSSRSSQQMAALRQVASLNGTSSSPIYGKVDTARMGVMGWAMGGGGSLISAANNPSLKAAAPQAPWDSSTNFSSVTVPTLIFACENDSIAPVNSSALPIYDSMSRNAKQFLEINGGSHSCANSGNSNQALIGKKGVAWMKRFMDNDTRYSTFACENPNSTRVSDFRTANCS",
    "measured-metric": "Proxy for plastic degradation",
    "observed-measurement": 0.06
  }
]
